Measured ED50 values are reported for all entries that follow.
Assay: Tremorgenic activity in ip dosed mouse
Type: ADME, organism-based
Details: in vivo
Experimental Endpoint: ED50 (mg/kg)

Structure As Smiles	Experimental Endpoint	Data Value
CC(C)(O)[C@H]1O[C@H]2CC[C@@]3(C)[C@@](O)(CC[C@H]4Cc5c([nH]c6ccccc56)[C@@]43C)C2=CC1=O	ED50	25
COc1ccc2c3c4n(c2c1)[C@H](C=C(C)C)OOC(C)(C)C[C@@H]4N1C(=O)[C@@H]2CCCN2C(=O)[C@]1(O)[C@H]3O	ED50	0.39
C=C1Cc2ccc3[nH]c4c5c3c2[C@H]2[C@@H]1C[C@@H]2C(C)(C)O[C@H]5[C@@H]1CC[C@@]2(O)[C@@]35O[C@@H]3[C@@H](O)[C@@H](C(=C)C)O[C@H]5CC[C@]2(C)[C@@]41C	ED50	5
